System: SK-OV-3
Assay text: Antiproliferative activity against human SKOV3 cells after 24 hrs by MTT assay
Format: functional, cell-based
Run parameters: SK-OV-3, 24 h
Parameter pIC50: see the listing below.
Lab note: report pIC50 as minus log10 of the concentration in molar units, number only.

Problem: Provide value of pIC50 for this record tested with SK-OV-3: COc1ccc(C(=O)/C=C/c2ccccn2)c2c1C=CC(C)(C)O2
Result: 5.08

---
Problem: // fetch SK-OV-3 pIC50 for CCN(CC)c1ccc(/C=C/C(=O)c2ccc(OC)c3c2OC(C)(C)C=C3)cc1
Result: 6.21

Problem: Same lookup for COc1ccc(C(=O)/C=C/c2ccc(N3CCCC3)cc2)c2c1C=CC(C)(C)O2 , please.
Result: 5.13

Problem: Moving on to the next compound: COc1ccc(C(=O)/C=C/c2cc(OC)c(OC)c(OC)c2)c2c1C=CC(C)(C)O2
Result: 5.01

Problem: Likewise for COc1ccc(C(=O)/C=C/c2cccc([N+](=O)[O-])c2)c2c1C=CC(C)(C)O2 ?
Result: 5.01

Problem: Same read-out for COc1ccc(C(=O)/C=C/c2ccc([N+](=O)[O-])cc2)c2c1C=CC(C)(C)O2 ?
Result: 5.47

---

Test system: SK-OV-3
Assay text: Antiproliferative activity against human SKOV3 cells after 24 hrs by MTT assay
Type: functional, cell-based
Run parameters: SK-OV-3, 24 h
Measured property: IC50

Below are worked cases with known answers.
Problem: Value lookup for IC50; key = COc1ccc(C(=O)/C=C/c2ccccc2Cl)c2c1C=CC(C)(C)O2
Result: > 10 µM

Problem: Thanks! And COc1ccc(/C=C/C(=O)c2ccc(OC)c3c2OC(C)(C)C=C3)cn1 ?
Result: > 10 µM

Problem: Query COc1ccc(C(=O)/C=C/c2ccc(Cl)c(Cl)c2)c2c1C=CC(C)(C)O2 next
Result: 9.94 µM

Next up:
Problem: Record request: IC50 value, item COc1ccc(C(=O)/C=C/c2ccc(Br)cc2)c2c1C=CC(C)(C)O2
Result: > 10 µM

---

// reported IC50 for each item listed
Test system: SK-OV-3
Assay text: Antiproliferative activity against human SKOV3 cells after 24 hrs by MTT assay
Format: functional, cell-based
Run parameters: SK-OV-3, 24 h
Report only the number, with the unit µM understood.

Problem: Find the measured IC50: item COc1ccc(C(=O)/C=C/c2ccc(-n3ccnc3)cc2)c2c1C=CC(C)(C)O2 , target or system SK-OV-3.
Result: 7.2

Problem: # iterate: COc1cccc(/C=C/C(=O)c2ccc(OC)c3c2OC(C)(C)C=C3)c1
Result: 9.36

Problem: Another molecule to look at: COc1ccc(C(=O)/C=C/c2ccc3ccccc3n2)c2c1C=CC(C)(C)O2
Result: 2.35

***
Problem: # value lookup — system SK-OV-3, readout IC50, item COc1ccc(C(=O)/C=C/c2cccc(C(F)(F)F)c2)c2c1C=CC(C)(C)O2
Result: 9.33

Problem: COc1ccc(/C=C/C(=O)c2ccc(OC)c3c2OC(C)(C)C=C3)c(F)c1 ?
Result: 4.88

---

Known pIC50 of a selection of compounds
Tested on: SK-OV-3
Assay text: Antiproliferative activity against human SKOV3 cells after 24 hrs by MTT assay
Type: functional, cell-based
Run parameters: SK-OV-3, 24 h
Convention used: pIC50 is expressed as -log10 of the molar concentration.

Solved entries:
Problem: Given the entry COc1ccc(/C=C/C(=O)c2ccc(OC)c3c2OC(C)(C)C=C3)cc1 , report its measured pIC50.
Result: 5.63

Problem: Same question for COc1ccc(C(=O)/C=C/c2cc(Cl)ccc2O)c2c1C=CC(C)(C)O2 please.
Result: 5.20

Now for another entry.
Problem: Given COc1ccc(C(=O)/C=C/c2ccc3ccccc3c2)c2c1C=CC(C)(C)O2 , state its recorded pIC50.
Result: 5.12
